Every entry's value here was drawn from patent US9440913B2.

assay.target: Cryptosporidium cyanide insensitive oxidase (AOX), recombinant protein (cCpAOX) (Cryptosporidium parvum)
Sequence (Q761U6 entry or part of it): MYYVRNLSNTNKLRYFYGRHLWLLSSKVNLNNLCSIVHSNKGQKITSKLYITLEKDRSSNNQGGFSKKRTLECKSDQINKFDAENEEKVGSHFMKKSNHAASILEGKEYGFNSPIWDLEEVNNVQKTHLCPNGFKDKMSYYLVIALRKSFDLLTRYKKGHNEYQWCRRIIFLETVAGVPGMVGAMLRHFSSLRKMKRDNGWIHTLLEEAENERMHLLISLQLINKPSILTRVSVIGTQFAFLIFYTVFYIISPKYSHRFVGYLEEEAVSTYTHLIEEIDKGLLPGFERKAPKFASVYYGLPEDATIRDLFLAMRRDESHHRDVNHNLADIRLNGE
experiment.notes: CpAOX enzyme inhibition
Type: biochemical
The following compounds are shown together with reported IC50 values.
reported.endpoint: IC50

compound: Cc1c(Cl)c(O)c(CCCCCCCCCCCC(=O)OC(C)C)c(O)c1C=O
meas.value: 2.5 nM
//
compound: CCOC(=O)CCCCCCCCCCCc1c(O)c(Cl)c(C)c(C=O)c1O
meas.value: 1.8 nM
//
compound: CCCCC/C(C)=C\Cc1c(O)c(Cl)c(C)c(C=O)c1O
meas.value: 1.4 nM
//
compound: C/C(=C\Cc1c(O)c(Cl)c(C)c(C=O)c1O)CC/C=C(\C)C(C)O (centres unmarked)
meas.value: 2.5 nM
//
compound: Cc1c(Cl)c(O)c(CCCCCCCCCC(=O)O)c(O)c1C=O
meas.value: 2.1 nM
//
compound: Cc1c(Cl)c(O)c(CCCCCCCCCC(=O)OC(C)C)c(O)c1C=O
meas.value: 2.2 nM
//
compound: Cc1c(Cl)c(O)c(CCCCCCCC(=O)Oc2c3ccccc3cc3ccccc23)c(O)c1C=O
meas.value: 2.6 nM
//
compound: Cc1c(Cl)c(O)c(C/C=C/CCCCCOC(=O)C(C)(C)C)c(O)c1C=O
meas.value: 2.1 nM
//
compound: CCC(=O)OCCCCCCCCc1c(O)c(Cl)c(C)c(C=O)c1O
meas.value: 2.2 nM
//
compound: Cc1c(Cl)c(O)c(/C=C/CCCCCCCOC(=O)C(C)(C)C)c(O)c1C=O
meas.value: 2.2 nM
//
compound: Cc1c(Cl)c(O)c(CCCCCCCCCC(=O)OC(C)(C)C)c(O)c1C=O
meas.value: 0.92 nM

###

Quick reference: log10 of MIC of the listed items.
Test system: T. b. rhodesiense IL1501
experiment.notes: Antiprotozoal effect, MIC measurement in HMI-9 culture
Format: cell-based
condition.context: Trypanosoma brucei, RHODESIENSE, 24 h; Glycerol (−); bloodstream forms, 18 + 6 hours culture
reported.endpoint: log10 of MIC (log10 of the value in nM)

compound: Cc1c(Cl)c(O)c(CCCCCCCCCC(=O)OC(C)(C)C)c(O)c1C=O
log10 of MIC: 1.20

compound: CC(=O)c1c(C)c(Cl)c(O)c(CCCCCCCOC(=O)C(C)(C)C)c1O
log10 of MIC: 2.73

compound: Cc1c(Cl)c(O)c(CCCCCCCC2CC(=O)C(C)(C)O2)c(O)c1C=O (centres unmarked)
log10 of MIC: 1.08

compound: CC(=O)c1c(C)c(Cl)c(O)c(C/C=C(\C)CC/C=C(\C)COC(=O)C(C)(C)C)c1O
log10 of MIC: 1.00

compound: Cc1c(Cl)c(O)c(CCCCCCCC(=O)Oc2c3ccccc3cc3ccccc23)c(O)c1C=O
log10 of MIC: 0.82

compound: CCCCC/C(C)=C/Cc1c(O)c(Cl)c(C)c(C=O)c1O
log10 of MIC: -0.74

compound: CC(=O)OCCCCCCCCc1c(O)c(Cl)c(C)c(C=O)c1O
log10 of MIC: 1.83

compound: Cc1c(Cl)c(O)c(CCCCCCCCOC(=O)C(C)(C)C)c(O)c1C=O
log10 of MIC: 0.28

###

molecule: Cc1c(Cl)c(O)c(CCCCCCCCOC(=O)C(C)(C)C)c(O)c1C=O [Compound 215-12-OPiv]
melting point: 70 to 71 °C

molecule: Cc1c(Cl)c(O)c(CCCCCCCCCC(=O)OCC2COC(=O)O2)c(O)c1C=O (stereo not shown) [Compound 501-16-G]
melting point: 70 to 72 °C

molecule: Cc1c(Cl)c(O)c(CCCCCCCC2CC(=O)C(C)(C)O2)c(O)c1C=O (stereo not shown) [Compound 250]
melting point: 70 to 71 °C

molecule: CCCCC/C(C)=C\Cc1c(O)c(Cl)c(C)c(C=O)c1O [Compound 264-8-z]
melting point: 157 to 158 °C

###

Recorded melting point for the following compounds

compound: CCC(=O)OCCCCCCCCCc1c(O)c(Cl)c(C)c(C=O)c1O [Compound 215-13-OCOEt]
melting point: 69 to 70 °C
//
compound: Cc1c(Cl)c(O)c(CCCCCCCOC(=O)C(C)(C)C)c(O)c1C=O [Compound 215-11-OPiv]
melting point: 63 to 64 °C
//
compound: CCCCCC(C)=CCc1c(O)c(Cl)c(C)c(C(C)=O)c1O (mixture of isomers) [Compound 268-8]
melting point: 42 to 46 °C

###

assay.target: recombinant Trypanosome AOX (TAO) enzyme (Trypanosoma brucei brucei, UniProt Q26710)
Sequence (Q26710 whole entry): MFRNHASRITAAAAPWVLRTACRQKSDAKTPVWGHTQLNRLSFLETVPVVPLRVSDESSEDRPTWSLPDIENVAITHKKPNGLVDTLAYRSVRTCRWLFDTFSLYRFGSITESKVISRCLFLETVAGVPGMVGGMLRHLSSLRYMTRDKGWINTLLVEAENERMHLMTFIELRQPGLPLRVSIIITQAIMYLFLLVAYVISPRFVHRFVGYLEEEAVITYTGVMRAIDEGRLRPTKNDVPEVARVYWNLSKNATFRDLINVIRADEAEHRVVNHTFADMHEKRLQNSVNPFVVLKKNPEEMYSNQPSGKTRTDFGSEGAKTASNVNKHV
experiment.notes: TAO enzyme inhibition (quinol oxidase activity, ubiquinol-1 substrate)
condition.context: TAO-expressing E. coli membrane fraction, 25° C., ubiquinol-1, absorbance at 278 nm
Description: Escherichia coli membrane fractions that express TAO by a plasmid harboring TAO cDNA cloned from T. brucei brucei (Fukai, Comparative Biochemistry & Physiology, 124, 141-148, 1999) were used as a recombinant Trypanosome AOX (TAO) enzyme. […] Ubiquinol-1 as a substrate was then added to the mixture to initiated the reaction, and change in absorbance at 278 nm was monitored (Shimadzu UV-3000, molar absorption coefficient ε=15 cm^−1 mM^−1).
IC50 strictly under 0.7 nM means criterion met; at 0.7 nM or over means criterion not met.

compound: CC(=O)OC(C)/C(C)=C/CC/C(C)=C/Cc1c(O)c(Cl)c(C)c(C=O)c1O (centres unmarked) [Compound 277-11-OAc]
label.class: criterion not met
//
compound: Cc1c(Cl)c(O)c(CCCCCCCCCC(=O)O)c(O)c1C=O [Compound 215-11-COOH]
label.class: criterion not met
//
compound: Cc1c(Cl)c(O)c(/C=C/CCCCCC2CC(=O)C(C)(C)O2)c(O)c1C=O (centres unmarked) [Compound 249]
label.class: criterion not met
//
compound: CCCCCC(C)=CCc1c(O)c(Cl)c(C)c(C(C)=O)c1O (mixture of isomers) [Compound 268-8]
label.class: criterion met
//
compound: COC(=O)CCCCCCCCCc1c(O)c(Cl)c(C)c(C=O)c1O [Compound 215-12-COOMe]
label.class: criterion met
//
compound: CCCCCC(C)CCc1c(O)c(Cl)c(C)c(C=O)c1O (centres unmarked) [Compound 265-8]
label.class: criterion met
//
compound: Cc1c(Cl)c(O)c(CCCCCCCCOC(=O)C(C)(C)C)c(O)c1C=O [Compound 215-12-OPiv]
label.class: criterion met
//
compound: C/C(=C\Cc1c(O)c(Cl)c(C)c(C=O)c1O)CC/C=C(\C)COC(=O)C(C)(C)C [Compound 234-12-OPiv]
label.class: criterion met
//
compound: CCC(=O)OCCCCCCCCc1c(O)c(Cl)c(C)c(C=O)c1O [Compound 215-12-OCOEt]
label.class: criterion met
//
compound: Cc1c(Cl)c(O)c(CCC(C)CCCCCOC(=O)C(C)(C)C)c(O)c1C=O (centres unmarked) [Compound 290-12-OPiv]
label.class: criterion met
//
compound: Cc1c(Cl)c(O)c(/C=C/CCCCCCOC(=O)C(C)C)c(O)c1C=O [Compound 200-12-OCOiPr]
label.class: criterion not met
//
compound: COC(=O)CCCCCCC/C=C/c1c(O)c(Cl)c(C)c(C=O)c1O [Compound 200-12-COOMe]
label.class: criterion met
//
compound: CC(=O)c1c(C)c(Cl)c(O)c(C/C=C(\C)CC/C=C(\C)C(C)O)c1O (centres unmarked) [Compound 286-9-OH]
label.class: criterion not met
//
compound: CC(=O)c1c(C)c(Cl)c(O)c(C/C=C(\C)CC/C=C(\C)C2CC(=O)C(C)(C)O2)c1O (centres unmarked) [Compound 214]
label.class: criterion met
//
compound: Cc1c(Cl)c(O)c(C/C=C/CCCCCOC(=O)C(C)(C)C)c(O)c1C=O [Compound 206-12-OPiv]
label.class: criterion met
//
compound: Cc1c(Cl)c(O)c(CCCCCCCCCC(=O)OCC2COC(=O)O2)c(O)c1C=O (centres unmarked) [Compound 501-16-G]
label.class: criterion met

###

assay.target: recombinant Trypanosome AOX (TAO) enzyme (Trypanosoma brucei brucei, UniProt Q26710)
experiment.notes: TAO enzyme inhibition (quinol oxidase activity, ubiquinol-1 substrate)
condition.context: TAO-expressing E. coli membrane fraction, 25° C., ubiquinol-1, absorbance at 278 nm
Protocol: Escherichia coli membrane fractions that express TAO by a plasmid harboring TAO cDNA cloned from T. brucei brucei (Fukai, Comparative Biochemistry & Physiology, 124, 141-148, 1999) were used as a recombinant Trypanosome AOX (TAO) enzyme. […] Ubiquinol-1 as a substrate was then added to the mixture to initiated the reaction, and change in absorbance at 278 nm was monitored (Shimadzu UV-3000, molar absorption coefficient ε=15 cm^−1 mM^−1).

compound: CCCCC/C(C)=C\Cc1c(O)c(Cl)c(C)c(C=O)c1O
units.symbol: nM
IC50: 0.18
//
compound: C/C(=C\Cc1c(O)c(Cl)c(C)c(C=O)c1O)CC/C=C(\C)COC1CCCO1 (stereo not drawn)
units.symbol: nM
IC50: 0.12
//
compound: Cc1c(Cl)c(O)c(C/C=C/CCCC/C=C/C(=O)C(C)(C)C)c(O)c1C=O
units.symbol: nM
IC50: 0.74
//
compound: Cc1c(Cl)c(O)c(CCCCCCC(C)COC(=O)C(C)(C)C)c(O)c1C=O (stereo not drawn)
units.symbol: nM
IC50: 0.41
//
compound: C/C(=C\COC(=O)C(C)(C)C)CC/C(C)=C/Cc1c(O)c(Cl)c(C)c(C=O)c1O
units.symbol: nM
IC50: 0.36
//
compound: Cc1c(Cl)c(O)c(CCCCCCCCCOC(=O)C(C)(C)C)c(O)c1C=O
units.symbol: nM
IC50: 0.22
//
compound: CC(/C=C/C(=O)C(C)(C)C)=C\CC/C(C)=C/Cc1c(O)c(Cl)c(C)c(C=O)c1O
units.symbol: nM
IC50: 0.23
//
compound: CC(=O)c1c(C)c(Cl)c(O)c(C/C=C(\C)CCC=C(C)C)c1O
units.symbol: nM
IC50: 0.15
//
compound: C/C(=C\CC/C=C/Cc1c(O)c(Cl)c(C)c(C=O)c1O)COC(=O)C(C)(C)C
units.symbol: nM
IC50: 0.26
//
compound: CC(=O)/C(C)=C/CC/C(C)=C/Cc1c(O)c(Cl)c(C)c(C=O)c1O
units.symbol: nM
IC50: 1.2
//
compound: CCOC(=O)CCCCCCCCCc1c(O)c(Cl)c(C)c(C=O)c1O
units.symbol: nM
IC50: 0.2
//
compound: Cc1c(Cl)c(O)c(CCCCCCCCCC(=O)OC(C)(C)C)c(O)c1C=O
units.symbol: nM
IC50: 0.25
